Data credit: patent US10499642B2

mortality at 200 ppm values, listed per item
Tested on: Tetranychus urticae
experiment: Tetranychus urticae (two-spotted spider mite) bean leaf disc test
Type: in vivo
assayContext: foliar, 192 h
reportedEndpoint: mortality at 200 ppm

compound	reportedEndpoint	result
CCSC1=NOC(NC(=O)c2ccc(C3=NO[C@@](c4cc(Cl)cc(C(F)(F)F)c4)(C(F)(F)F)C3)cc2C)C1 (stereo partly drawn) [Compound A051]	mortality at 200 ppm	≥ 80%
Cc1cc(C2=NO[C@@](c3cc(Cl)c(F)c(Cl)c3)(C(F)(F)F)C2)ccc1C(=O)NC1CC(OCC(F)(F)C(F)C(F)(F)F)=NO1 (stereo partly drawn) [Compound A075]	mortality at 200 ppm	≥ 80%
CCSC1=NOC(NC(=O)c2ccc(C3=NO[C@@](c4cc(Cl)c(Cl)c(Cl)c4)(C(F)(F)F)C3)cc2C)C1 (stereo partly drawn) [Compound A052]	mortality at 200 ppm	≥ 80%
Cc1cc(C2=NO[C@@](c3cc(Cl)cc(C(F)(F)F)c3)(C(F)(F)F)C2)ccc1C(=O)N(C=O)C1CC(Cl)=NO1 (stereo partly drawn) [Compound A012]	mortality at 200 ppm	≥ 80%
COC1=NOC(NC(=O)c2ccc(C3=NO[C@@](c4cc(Cl)c(F)c(Cl)c4)(C(F)(F)F)C3)cc2Cl)C1 (stereo partly drawn) [Compound A045]	mortality at 200 ppm	≥ 80%
C=C(F)COC1=NOC(NC(=O)c2ccc(C3=NO[C@@](c4cc(Cl)c(F)c(Cl)c4)(C(F)(F)F)C3)cc2C)C1 (stereo partly drawn) [Compound A081]	mortality at 200 ppm	≥ 80%

====

System: Tetranychus urticae
experiment: Tetranychus urticae (two-spotted spider mite) bean leaf disc test
Type: in vivo
assayContext: foliar, 192 h

molecule	mortality at 200 ppm
Cc1cc(C2=NO[C@@](c3cc(Cl)cc(Cl)c3)(C(F)(F)F)C2)ccc1C(=O)N[C@H]1CC(C(F)(F)F)=NO1 (single isomer, unassigned) [Compound A155]	≥ 80%
C#CCCCOC1=NOC(NC(=O)c2ccc(C3=NO[C@@](c4cc(Cl)c(Cl)c(Cl)c4)(C(F)(F)F)C3)cc2C)C1 (stereo partly drawn) [Compound A113]	≥ 80%
CC1=NOC(NC(=O)c2ccc(C3=NO[C@@](c4cc(Cl)c(F)c(Cl)c4)(C(F)(F)F)C3)cc2Br)C1 (stereo partly drawn) [Compound A036]	≥ 80%

====

System: Tetranychus urticae
experiment: Tetranychus urticae (two-spotted spider mite) bean leaf disc test
Format: in vivo
assayContext: foliar, 192 h
Method: Tetranychus urticae (Two-Spotted Spider Mite): Bean leaf discs on agar in 24-well microtiter plates were sprayed with aqueous test solutions prepared from 10′000 ppm DMSO stock solutions. After drying the leaf discs were infested with a mite population of mixed ages. The samples were assessed for mortality on mixed population (mobile stages) 8 days after infestation.

compound	measurementTarget	mortality at 200 ppm
CCOC1=NOC(NC(=O)c2ccc(C3=NO[C@@](c4cc(Cl)c(F)c(Cl)c4)(C(F)(F)F)C3)cc2C)C1 (stereo partly shown)	Tetranychus urticae	≥ 80%
Cc1cc(C2=NO[C@@](c3cc(Cl)c(F)c(Cl)c3)(C(F)(F)F)C2)ccc1C(=O)NC1CC(/C=N/O)=NO1 (stereo partly shown)	Tetranychus urticae	≥ 80%
CC1=NOC(N(C=O)C(=O)c2ccc(C3=NO[C@@](c4cc(Cl)c(F)c(Cl)c4)(C(F)(F)F)C3)cc2Br)C1 (stereo partly shown)	Tetranychus urticae	≥ 80%
Cc1cc(C2=NO[C@@](c3cc(Cl)cc(C(F)(F)F)c3)(C(F)(F)F)C2)ccc1C(=O)N(C=O)C1CC(Br)=NO1 (stereo partly shown)	Tetranychus urticae	≥ 80%
CC1=NOC(NC(=O)c2ccc(C3=NO[C@@](c4cc(Cl)c(Cl)c(Cl)c4)(C(F)(F)F)C3)cc2C)C1 (stereo partly shown)	Tetranychus urticae	≥ 80%
O=C(NC1CC(Br)=NO1)c1ccc(C2=NO[C@@](c3cc(Cl)cc(Cl)c3)(C(F)(F)F)C2)cc1Cl (stereo partly shown)	Tetranychus urticae	≥ 80%
COCC1=NOC(N(C(=O)OC(C)(C)C)C(=O)c2ccc(C3=NO[C@@](c4cc(Cl)c(F)c(Cl)c4)(C(F)(F)F)C3)cc2C)C1 (stereo partly shown)	Tetranychus urticae	≥ 80%
Cc1cc(C2=NO[C@@](c3cc(Cl)c(F)c(Cl)c3)(C(F)(F)F)C2)ccc1C(=O)NC1CC(Cl)=NO1 (stereo partly shown)	Tetranychus urticae	≥ 80%
CO/N=C(\C)COC1=NOC(NC(=O)c2ccc(C3=NO[C@@](c4cc(Cl)c(Cl)c(Cl)c4)(C(F)(F)F)C3)cc2C)C1 (stereo partly shown)	Tetranychus urticae	≥ 80%
CCS(=O)(=O)C1=NOC(NC(=O)c2ccc(C3=NO[C@@](c4cc(Cl)c(Cl)c(Cl)c4)(C(F)(F)F)C3)cc2C)C1 (stereo partly shown)	Tetranychus urticae	≥ 80%
Cc1cc(C2=NO[C@@](c3cc(Cl)c(F)c(Cl)c3)(C(F)(F)F)C2)ccc1C(=O)NC1CC(N(C)C)=NO1 (stereo partly shown)	Tetranychus urticae	≥ 80%
Cc1cc(C2=NO[C@@](c3cc(Cl)cc(Cl)c3)(C(F)(F)F)C2)ccc1C(=O)N(C=O)C1CC(Br)=NO1 (stereo partly shown)	Tetranychus urticae	≥ 80%
Cc1cc(C2=NO[C@@](c3cc(Cl)c(F)c(Cl)c3)(C(F)(F)F)C2)ccc1C(=O)N(C(=O)OC(C)(C)C)C1CC=NO1 (stereo partly shown)	Tetranychus urticae	≥ 80%
CCNC(=O)COC1=NOC(NC(=O)c2ccc(C3=NO[C@@](c4cc(Cl)c(Cl)c(Cl)c4)(C(F)(F)F)C3)cc2C)C1 (stereo partly shown)	Tetranychus urticae	≥ 80%
CC1=NOC(NC(=O)c2ccc(C3=NO[C@@](c4cc(Cl)c(F)c(Cl)c4)(C(F)(F)F)C3)cc2C)C1 (stereo partly shown)	Tetranychus urticae	≥ 80%
COC1=NO[C@H](NC(=O)c2ccc(C3=NO[C@@](c4cc(Cl)c(F)c(Cl)c4)(C(F)(F)F)C3)cc2C)C1 (single isomer, unassigned)	Tetranychus urticae	≥ 80%
Cc1cc(C2=NO[C@@](c3cc(Cl)c(Cl)c(Cl)c3)(C(F)(F)F)C2)ccc1C(=O)NC1CC(C#N)=NO1 (stereo partly shown)	Tetranychus urticae	≥ 80%
CCOC1=NO[C@@H](NC(=O)c2ccc(C3=NO[C@@](c4cc(Cl)cc(Cl)c4)(C(F)(F)F)C3)cc2C)C1 (single isomer, unassigned)	Tetranychus urticae	≥ 80%
Cc1cc(C2=NO[C@@](c3cc(Cl)cc(Cl)c3)(C(F)(F)F)C2)ccc1C(=O)NC1CC(OCC(F)(F)F)=NO1 (stereo partly shown)	Tetranychus urticae	≥ 80%
Cc1cc(C2=NO[C@@](c3cc(Cl)c(Cl)c(Cl)c3)(C(F)(F)F)C2)ccc1C(=O)NC1CC(Br)=NO1 (stereo partly shown)	Tetranychus urticae	≥ 80%
Cc1cc(C2=NO[C@@](c3cc(Cl)c(Cl)c(Cl)c3)(C(F)(F)F)C2)ccc1C(=O)NC1CC(OCc2ccncc2)=NO1 (stereo partly shown)	Tetranychus urticae	≥ 80%
CCC1=NOC(N(C=O)C(=O)c2ccc(C3=NO[C@@](c4cc(Cl)cc(Cl)c4)(C(F)(F)F)C3)cc2C)C1 (stereo partly shown)	Tetranychus urticae	≥ 80%
COC1=NO[C@@H](NC(=O)c2ccc(C3=NO[C@@](c4cc(Cl)c(Cl)c(Cl)c4)(C(F)(F)F)C3)cc2C)C1 (single isomer, unassigned)	Tetranychus urticae	≥ 80%
COC1=NO[C@H](N(C(=O)OC(C)(C)C)C(=O)c2ccc(C3=NO[C@@](c4cc(Cl)c(Cl)c(Cl)c4)(C(F)(F)F)C3)cc2C)C1 (single isomer, unassigned)	Tetranychus urticae	≥ 80%
Cc1cc(C2=NO[C@@](c3cc(Cl)c(F)c(Cl)c3)(C(F)(F)F)C2)ccc1C(=O)NC1CC(C=O)=NO1 (stereo partly shown)	Tetranychus urticae	≥ 80%

====

Tested on: Tetranychus urticae
experiment: Tetranychus urticae (two-spotted spider mite) bean leaf disc test
Type: in vivo
assayContext: foliar, 192 h
reportedEndpoint: mortality at 200 ppm

                                   molecule  result
0  COC1=NOC(NC(=O)c2ccc(C3=NO[C@@](c4cc(Cl)c(F)c(Cl)c4)(C(F)(F)F)C3)cc2C)C1 (stereo partly drawn) [Compound A030]   ≥ 80%
1  Cc1cc(C2=NO[C@@](c3cc(Cl)c(F)c(Cl)c3)(C(F)(F)F)C2)ccc1C(=O)NC1CC(OCC2CC2)=NO1 (stereo partly drawn) [Compound A083]   ≥ 80%
2  Cc1cc(C2=NO[C@@](c3cc(Cl)c(Cl)c(Cl)c3)(C(F)(F)F)C2)ccc1C(=O)NC1CC(OCC(F)(F)F)=NO1 (stereo partly drawn) [Compound A129]   ≥ 80%
